experiment_summary: Inhibition of quorum sensing system in Pseudomonas aeruginosa PAO1 harboring mini-ctx-lasB-lacZ at 10 uM measured after 16 hrs by ONPG test relative to control
Parameter: inhibition. Scope: all listed entries.

{"smiles_input": "Cc1ccc2[nH]cc(/C=C/c3ccc4ccccc4[n+]3C)c2c1", "unit_string": "%", "inhibition": 17}
{"smiles_input": "C[n+]1c(/C=C/c2c[nH]c3ccc([N+](=O)[O-])cc23)ccc2ccccc21", "unit_string": "%", "inhibition": 4.62}
{"smiles_input": "C[n+]1c(/C=C/c2c[nH]c3cc(Br)ccc23)ccc2ccccc21", "unit_string": "%", "inhibition": 0.5}
{"smiles_input": "C[n+]1c(/C=C/c2coc3ccccc3c2=O)sc2ccccc21", "unit_string": "%", "inhibition": 7.3}
{"smiles_input": "C[n+]1c(/C=C/c2cscn2)ccc2ccccc21", "unit_string": "%", "inhibition": 4.55}
{"smiles_input": "C[n+]1c(/C=C/c2cc(=O)c(O)co2)ccc2ccccc21", "unit_string": "%", "inhibition": 0.45}
{"smiles_input": "COc1ccc2[nH]cc(/C=C/c3ccc4ccccc4[n+]3C)c2c1", "unit_string": "%", "inhibition": 16.6}
{"smiles_input": "C[n+]1c(/C=C/c2c[nH]c3cc(Cl)ccc23)ccc2ccccc21", "unit_string": "%", "inhibition": 3.02}
{"smiles_input": "C[n+]1c(/C=C/c2ccc3ccc(=O)oc3c2)ccc2ccccc21", "unit_string": "%", "inhibition": 2.74}

Taken from ChEMBL document CHEMBL6078637.
